# targetSystem: Mu-type opioid receptor (Homo sapiens) + Delta-type opioid receptor (Homo sapiens) (UniProt P35372+P41143)
# Sequence (P35372 whole entry, looked up): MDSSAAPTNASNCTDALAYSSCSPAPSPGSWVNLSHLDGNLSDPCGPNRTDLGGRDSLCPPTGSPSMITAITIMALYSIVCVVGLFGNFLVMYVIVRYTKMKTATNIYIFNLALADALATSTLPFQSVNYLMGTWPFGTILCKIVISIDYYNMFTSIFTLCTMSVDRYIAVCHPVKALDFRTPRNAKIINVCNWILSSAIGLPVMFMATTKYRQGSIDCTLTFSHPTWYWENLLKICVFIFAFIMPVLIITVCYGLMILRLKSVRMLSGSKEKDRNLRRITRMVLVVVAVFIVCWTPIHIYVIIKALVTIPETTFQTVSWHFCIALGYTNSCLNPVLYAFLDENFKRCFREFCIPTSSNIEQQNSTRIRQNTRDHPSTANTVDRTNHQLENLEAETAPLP
# Sequence (P41143 whole entry, looked up): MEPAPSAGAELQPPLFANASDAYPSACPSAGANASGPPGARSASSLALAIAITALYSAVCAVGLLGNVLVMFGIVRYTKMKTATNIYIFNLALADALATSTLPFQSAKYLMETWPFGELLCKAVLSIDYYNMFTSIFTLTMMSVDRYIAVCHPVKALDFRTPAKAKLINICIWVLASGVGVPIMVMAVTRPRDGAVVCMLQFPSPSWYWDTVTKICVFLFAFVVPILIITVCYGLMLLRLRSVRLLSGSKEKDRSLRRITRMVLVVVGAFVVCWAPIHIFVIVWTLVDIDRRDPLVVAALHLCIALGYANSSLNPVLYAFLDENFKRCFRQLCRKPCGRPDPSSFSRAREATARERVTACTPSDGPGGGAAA
# experimentDescription: OPRM1-OPRD1 heterodimer agonist potency – cell-based, luminescence, dose response (AID 588407);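 also: potency of agonists raising the heterodimer signal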
# measurementParameters: cells, MOR-DOR heterodimerization
Calls of active or inactive are those of the source. No rule for the calls is given here.
Pick one and only one: yes = active, no = inactive

Exercise: For this compound, state the assay outcome: CN(C)C(CNC(=O)c1ccc(Br)cc1)c1ccco1 (stereo not drawn)
Solution: no

Exercise: For this compound, state the assay outcome: COc1cc(C2C(C#N)=C(N)N(c3sc4c(c3C#N)CCCC4)C3=C2C(=O)CC(C)(C)C3)cc(OC)c1OC (stereo not drawn)
Solution: no

Exercise: For this compound, state the assay outcome: CCOC(=O)C1(CCOC)CCN(Cc2ccccc2-c2ccco2)CC1
Solution: yes

Exercise: For this compound, state the assay outcome: Cc1ccc(C)c(-n2cc(CNCCc3cnccn3)c(-c3ccccc3)n2)c1
Solution: yes

Exercise: For this compound, state the assay outcome: CC(=O)NC(CC(=O)NCC(c1ccco1)N(C)C)c1ccccc1 (stereo not drawn)
Solution: yes

Exercise: For this compound, state the assay outcome: CN(C)C(CNC(=S)Nc1ccccc1Cl)c1cccnc1 (stereo not drawn)
Solution: yes

Exercise: For this compound, state the assay outcome: COc1ccc(CNCCc2c[nH]c3ccccc23)c(OC)c1C
Solution: no

Exercise: For this compound, state the assay outcome: Nc1nonc1C(=O)NCCNCc1c(OCc2ccccc2F)ccc2ccccc12
Solution: no

Exercise: For this compound, state the assay outcome: Cc1ccc(CSCC(=O)N/N=C/c2sccc2C)cc1
Solution: yes

Exercise: For this compound, state the assay outcome: Cc1cc(/C=C2\SC(=Nc3ccccc3)NC2=O)c(C)n1-c1ccc(S(N)(=O)=O)cc1
Solution: yes

Exercise: For this compound, state the assay outcome: COc1ccc(C(CNC(=O)CCOc2ccccc2)N(C)C)cc1 (stereo not drawn)
Solution: no

Exercise: For this compound, state the assay outcome: COc1cc(NC(=O)c2cccc(C)c2)ccc1NC(=O)c1cc2ccccc2o1
Solution: no

Exercise: For this compound, state the assay outcome: Cc1cc(/C=C2/C(=O)NN(c3ccccc3)C2=O)c(C)n1-c1ccc(O)cc1
Solution: yes

Exercise: For this compound, state the assay outcome: CCCC(=O)NC(C)C(c1cccs1)N1CCN(c2ccccc2)CC1 (stereo not drawn)
Solution: no

Exercise: For this compound, state the assay outcome: c1ccc(C2(N3CCCCC3)CCCCC2)cc1
Solution: yes

Exercise: For this compound, state the assay outcome: CN(C)c1ccc(C(CNC(=O)Cc2cccc3ccccc23)N(C)C)cc1 (stereo not drawn)
Solution: no

Exercise: For this compound, state the assay outcome: CCOC(=O)C1(CC2CC2)CCN(Cc2cnc(-c3ccccc3C)nc2)CC1
Solution: no

Exercise: For this compound, state the assay outcome: CCc1ccc2nc(N(CCCN(C)C)C(=O)c3ccc(S(=O)(=O)N(C)C4CCCCC4)cc3)sc2c1
Solution: no

Exercise: For this compound, state the assay outcome: CCc1ccc(NC(=O)N(CCCN2CCOCC2)Cc2cccs2)cc1
Solution: no

Exercise: For this compound, state the assay outcome: O=C(N[C@H]1C/C=C\C[C@H](CC(=O)N(CCO)Cc2ccccc2)C(=O)N[C@H](Cc2c[nH]c3ccccc23)COC1=O)OCC1c2ccccc2-c2ccccc21
Solution: no

Exercise: For this compound, state the assay outcome: CCOC(=O)C1(CCOc2ccccc2)CCN(Cc2ccc3c(c2)OCCO3)CC1
Solution: no

Exercise: For this compound, state the assay outcome: CN1C2C=C(N(CCc3ccccc3)C(=O)c3ccc(Cl)cc3)CC1CC2 (stereo not drawn)
Solution: no

Exercise: For this compound, state the assay outcome: CCOC(=O)C1(CC2CCCCO2)CCN(Cc2ccc(OC)cc2F)CC1 (stereo not drawn)
Solution: no

Exercise: For this compound, state the assay outcome: CCOC(=O)C1(CCOc2ccccc2)CCN(Cc2cnc(C)s2)CC1
Solution: yes

Exercise: For this compound, state the assay outcome: CCNS(=O)(=O)c1ccc(NC(=O)Nc2ccc3c(c2)OCO3)cc1
Solution: yes

Exercise: For this compound, state the assay outcome: CN(C)C(CNC(=O)NC1CCCCC1)c1cccnc1 (stereo not drawn)
Solution: yes

Exercise: For this compound, state the assay outcome: CN(C)C(CNC(=O)C1CC(=O)N(Cc2ccccc2)C1)c1ccccc1 (stereo not drawn)
Solution: no

Exercise: For this compound, state the assay outcome: COC(=O)NCC(c1ccc2c(c1)OCO2)N1CCN(c2ccccc2)CC1 (stereo not drawn)
Solution: yes

Exercise: For this compound, state the assay outcome: COc1ccc(C(CNC(=O)CCc2ccsc2)N(C)C)cc1 (stereo not drawn)
Solution: yes

Exercise: For this compound, state the assay outcome: CC(C)c1ccc(NC(=O)N(CCc2nc3ccccc3[nH]2)C2CCCC2)cc1
Solution: no

Exercise: For this compound, state the assay outcome: CN(C)C(CNC(=O)c1ccc(C(F)(F)F)cc1)c1ccco1 (stereo not drawn)
Solution: yes

Exercise: For this compound, state the assay outcome: Cn1c(CN2CCN(c3cccc(Cl)c3)CC2)nc2ccccc21
Solution: yes

Exercise: For this compound, state the assay outcome: CN(C)CCCN(C(=O)c1ccc(S(=O)(=O)N(C)Cc2ccccc2)cc1)c1nc2c(F)cccc2s1
Solution: yes

Exercise: For this compound, state the assay outcome: CN1CCN(c2ccc(NC(=O)c3ccc(-c4ccccc4F)o3)cc2)CC1
Solution: yes

Exercise: For this compound, state the assay outcome: O=S(=O)(NC1CC1)c1ccc(S(=O)(=O)N2CCCC3(CCCCC3)C2)cc1
Solution: no

Exercise: For this compound, state the assay outcome: Cc1ccc(C2(O)CN(c3ccccc3C)C3=[N+]2CCS3)cc1 (stereo not drawn)
Solution: yes

Exercise: For this compound, state the assay outcome: Cc1ccc(Cl)cc1NC(=O)CNCC(c1ccccc1)N(C)C (stereo not drawn)
Solution: yes

Exercise: For this compound, state the assay outcome: CCOC(=O)C1(CCc2ccccc2)CCN(Cc2ccc(NC(C)=O)cc2)CC1
Solution: yes

Exercise: For this compound, state the assay outcome: COc1ccc(C(CNC(=O)C(Cc2ccccc2)NC(N)=O)N(C)C)cc1 (stereo not drawn)
Solution: no

Exercise: For this compound, state the assay outcome: CC1CN(C)C(C)c2c1oc1ccc(N)cc21 (stereo not drawn)
Solution: no

Exercise: For this compound, state the assay outcome: CC(=O)CSc1ccc(-c2nc3cc(C)c(C)cc3[nH]2)cn1
Solution: no

Exercise: For this compound, state the assay outcome: COc1ccc(C(CNC(=O)c2cncc(Br)c2)N(C)C)cc1 (stereo not drawn)
Solution: yes

Exercise: For this compound, state the assay outcome: CCN(Cc1ccccc1)S(=O)(=O)c1ccc(C(=O)N(CCCN(C)C)c2nc3c(C)c(C)ccc3s2)cc1
Solution: no
